Each recorded value in this set is attributed to patent US10124004B2.

biological target: CDK4/cyclin D3 (Homo sapiens, UniProt P11802); construct: purchased Carna Biosciences, Inc. QS S Assist CDK4/Cyclin D3_FP Kit; assay: Human CDK4/cyclin D3 inhibitory activity (QS S Assist CDK4/Cyclin D3_FP Kit, IMAP fluorescence polarization); format: biochemical; conditions: Human CDK4/cyclin D3 inhibitory activity; read-out: CDK4 Activity symbol
Sequence (P11802 whole entry): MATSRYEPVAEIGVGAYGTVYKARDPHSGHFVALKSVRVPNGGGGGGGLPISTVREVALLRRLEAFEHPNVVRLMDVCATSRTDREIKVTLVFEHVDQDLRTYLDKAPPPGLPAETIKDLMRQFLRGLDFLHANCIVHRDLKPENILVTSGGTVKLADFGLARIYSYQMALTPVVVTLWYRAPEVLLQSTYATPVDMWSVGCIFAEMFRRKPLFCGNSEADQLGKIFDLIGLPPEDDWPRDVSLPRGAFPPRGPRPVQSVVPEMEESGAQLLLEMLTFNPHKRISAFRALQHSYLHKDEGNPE
Sequence (P30281 whole entry partner): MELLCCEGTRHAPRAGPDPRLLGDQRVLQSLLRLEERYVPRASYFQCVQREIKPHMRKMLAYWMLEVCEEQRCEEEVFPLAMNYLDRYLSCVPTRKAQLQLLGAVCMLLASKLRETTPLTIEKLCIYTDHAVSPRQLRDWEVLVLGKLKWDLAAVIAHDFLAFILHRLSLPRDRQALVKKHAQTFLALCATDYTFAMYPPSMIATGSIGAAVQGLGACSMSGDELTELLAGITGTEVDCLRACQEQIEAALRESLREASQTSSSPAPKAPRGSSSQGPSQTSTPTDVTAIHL
pIC50: −log10 of the molar value.

| compound | pIC50 |
| --- | --- |
| CO[C@H](C)c1cc2cnc(Nc3ccc(CN4CCC(O)CC4)cn3)nc2c(NC(C)C)n1 | > 8.00 |
| COCC(C)(C)Nc1nc([C@@H](C)O)cc2cnc(Nc3ccc(CN4CCNC(=O)C4)cn3)nc12 | 7.00 to 8.00 |
| COC1CCC(Nc2nc([C@@H](C)O)cc3cnc(Nc4ccc(N5CCC(O)CC5)nn4)nc23)CC1 (stereo partly shown) | > 8.00 |
| CO[C@H](C)c1cc2cnc(Nc3ccc(CN4CCNCC4=O)cn3)nc2c(NC(C)C)n1 | 7.00 to 8.00 |
